- Test system: HEK-293T
- Assay Protocol: Multiplex assay against HEK293T
- Assay type: toxicity, cell-based
- Assay Context: human, 24 h, 10 µM, compound concentration 10 uM, replicate 1
Metric Name: Total Cell Count

Worked cases, Total Cell Count given:
Nc1ccc(C(=O)Nc2cccc(-c3nc(N4CCOCC4)c4oc5ncccc5c4n3)c2)cn1 ... 389
COc1cc2c(Nc3ccc(NC(=O)c4ccccc4)cc3)ncnc2cc1OCCCN1CCOCC1 ... 622
CCOc1cc(N2CCC(O)CC2)ccc1Nc1ncc2c(n1)N(C1CCCC1)CCC(=O)N2C ... 597
COc1cc2c(NC3CCN(C(C)C)CC3)nc(N3CCC(F)(F)CC3)nc2cc1OCCCN1CCCC1 ... 324

Now, please, on to the next compound.
Give its Total Cell Count value. Item: "Cl.Cl.Nc1ncnc2c1c(-c1cccc(OCc3ccccc3)c1)cn2[C@H]1C[C@@H](CN2CCC2)C1"
278

---

- System: Fibroblast
- Assay Protocol: Multiplex assay against human fibroblast
- Assay type: toxicity, cell-based
- Assay Context: 12 h, 10 µM, compound concentration 10 uM, replicate 1
API: label(entry) gives Yes if the entry's Total Cell Count is strictly smaller than 200; on equality or larger values it gives No.

Worked cases, answers included:
COc1cc2c(Nc3ccc(NC(=O)c4ccccc4)cc3)ncnc2cc1OCCCN1CCOCC1 ... No
CCn1c(-c2nonc2N)nc2cnc(Oc3cccc(NC(=O)c4ccc(OCCN5CCOCC5)cc4)c3)cc21 [GSK-269962A] ... No
CN(C)CCOc1ccc(-c2nc(-c3ccncc3)c(-c3ccc4c(c3)CC/C4=N\O)[nH]2)cc1 ... No
CCCn1c(=O)c2[nH]c(C34CC5CC(CC3C5)C4)nc2n(CCC)c1=O ... Yes
CCc1cc2c(cc1CC)CC(NC[C@H](O)c1ccc(O)c3[nH]c(=O)ccc13)C2 ... No

Does this compound meet the criterion Total Cell Count < 200? "c1ccc2oc(-c3csc(C4CCN(Cc5nc6ncccc6[nH]5)CC4)n3)cc2c1"
Yes

---

Collected Population Membrane Permeable-Phenotype (%) values appear next to each entry.
- Test system: U2OS
- Assay Protocol: Multiplex assay against U2OS
- Type: toxicity, cell-based
- Assay Context: human, 48 h, 10 µM, compound concentration 10 uM, replicate 2

Worked cases, Population Membrane Permeable-Phenotype (%) given:
CCCn1c(=O)c2[nH]c(C34CC5CC(CC3C5)C4)nc2n(CCC)c1=O ... 81%
Nc1nc2c(c(N3CCNCC3)n1)CCC1=C2[C@@H]2CCCC[C@@H]2O1 ... 21%
C1=N/C2=N/c3ccc(OCCN4CCCC4)c(c3)COC/C=C\COCc3cccc(c3)C(=C1)N2 ... 92%
CCC(=O)O[C@]1(C(=O)SCF)[C@H](C)C[C@H]2[C@@H]3C[C@H](F)C4=CC(=O)C=C[C@]4(C)[C@@]3(F)[C@@H](O)C[C@@]21C [FLUTICASONE PROPIONATE] ... 11%
CCn1c(-c2nonc2N)nc2cnc(Oc3cccc(NC(=O)c4ccc(OCCN5CCOCC5)cc4)c3)cc21 [GSK-269962A] ... 87%
CC(C)N1CCC(C)(C)c2cc(C#Cc3ccc(C(=O)O)cc3)ccc21 ... 2%

Give its Population Membrane Permeable-Phenotype (%) value. Item: "COc1cc2c(NC3CCN(C(C)C)CC3)nc(N3CCC(F)(F)CC3)nc2cc1OCCCN1CCCC1"
75%

Give its Population Membrane Permeable-Phenotype (%) value. Item: "Cc1cc2c(cc1N1C(=O)c3cccc4c(CCCO)ccc(c34)C1=O)n(C)c(=O)n2C"
46%

Give its Population Membrane Permeable-Phenotype (%) value. Item: "CC(=O)c1cc(-c2cc(C(=O)NC3CC3)ccc2C)c2ncccn12"
31%

Give its Population Membrane Permeable-Phenotype (%) value. Item: Cc1nc(Cc2cccc(C(F)(F)F)c2)sc1-c1ccc(C(N)=O)nc1 [TP-024n]
32%

Give its Population Membrane Permeable-Phenotype (%) value. Item: CC(C)Oc1ccc(C(=O)N[C@H](CNC(=O)CN(C)C)Cc2ccc(-c3cn4cccc([C@H](C)O)c4n3)cc2)cc1Cl [GSK-923295A]
81%

---

Collected Growth Rate values appear next to each entry.
- Test system: U2OS
- Assay Protocol: Incucyte cell viability with U2OS; note: filed as whole numbers so only -1 and 0 and 1 occur
- Assay type: toxicity, cell-based
- Assay Context: human, 18 h, 10 µM, compound concentration 10 uM, replicate number 2, timepoint 18 hours
Please reply with the number alone, leaving off any unit.

CCCCN(CCCC)C(=O)CN1C[C@@H](c2cc(OC)c3c(c2)OCO3)[C@H](C(=O)O)[C@H]1CC(C)(C)CCC.Cl ... 1
CCOC(=O)c1cc(C#N)c(N2CCC(C(=O)NS(=O)(=O)Cc3ccccc3)CC2)nc1C ... 1
CNc1oc(-c2cccc3ccccc23)nc1C#N ... 1
CN(C(=O)Cc1ccc(Cl)c(Cl)c1)C(CN1CCCC1)c1cccc(OCC(=O)O)c1.Cl (stereo not given) ... 1

Now, please, on to the next compound.
Given the entry "CNc1nc(Nc2cnn([C@H]3CCN(C4COC4)C[C@@H]3F)c2Cl)ncc1C(F)(F)F" , what Growth Rate was observed with U2OS?
0

---

- Tested on: HEK-293T
- Assay Protocol: Multiplex assay against HEK293T
- Assay type: toxicity, cell-based
- Assay Context: human, 48 h, 10 µM, compound concentration 10 uM, replicate 2
Metric Name: Population Hoechst High Intensity Objects (%)
Reply with just the number (in %).

Worked cases, Population Hoechst High Intensity Objects (%) given:
Cc1cc2c(cc1N1C(=O)c3cccc4c(CCCO)ccc(c34)C1=O)n(C)c(=O)n2C ... 3
CC(C)Oc1ccc(C(=O)N[C@H](CNC(=O)CN(C)C)Cc2ccc(-c3cn4cccc([C@H](C)O)c4n3)cc2)cc1Cl [GSK-923295A] ... 15
Nc1ccc(C(=O)Nc2cccc(-c3nc(N4CCOCC4)c4oc5ncccc5c4n3)c2)cn1 ... 8
Nc1nc2c(c(N3CCNCC3)n1)CCC1=C2[C@@H]2CCCC[C@@H]2O1 ... 37
CCC(=O)O[C@]1(C(=O)SCF)[C@H](C)C[C@H]2[C@@H]3C[C@H](F)C4=CC(=O)C=C[C@]4(C)[C@@]3(F)[C@@H](O)C[C@@]21C [FLUTICASONE PROPIONATE] ... 5
Cc1nc(Cc2cccc(C(F)(F)F)c2)sc1-c1ccc(C(N)=O)nc1 [TP-024n] ... 5

Give its Population Hoechst High Intensity Objects (%) value. Item: "Cl.Cl.Nc1ncnc2c1c(-c1cccc(OCc3ccccc3)c1)cn2[C@H]1C[C@@H](CN2CCC2)C1"
12

Give its Population Hoechst High Intensity Objects (%) value. Item: "COc1cc(N2CCC(N(C)C)CC2)ccc1Nc1ncc(Cl)c(Nc2ccccc2P(C)(C)=O)n1"
17

---

- Tested on: U2OS
- Assay Protocol: Multiplex assay against U2OS
- Type: toxicity, cell-based
- Assay Context: human, 12 h, 1 µM, compound concentration 1 uM, replicate 2
Collected Population Fragmented Nuclei (%) values appear next to each entry.
Reply with just the number (in %).

Worked cases, Population Fragmented Nuclei (%) given:
CCc1cc2c(cc1CC)CC(NC[C@H](O)c1ccc(O)c3[nH]c(=O)ccc13)C2 ... 3
COc1cc2c(NC3CCN(C(C)C)CC3)nc(N3CCC(F)(F)CC3)nc2cc1OCCCN1CCCC1 ... 20
O=C(O)c1ccc2cc(-c3ccc(O)c(C45CC6CC(CC(C6)C4)C5)c3)ccc2c1 ... 8
Cl.Cl.Nc1ncnc2c1c(-c1cccc(OCc3ccccc3)c1)cn2[C@H]1C[C@@H](CN2CCC2)C1 ... 11
CNc1oc(-c2cccc3ccccc23)nc1C#N ... 29
CNC(=O)c1nn(C)c2c1C(C)(C)Cc1cnc(Nc3ccc(N4CCN(C)CC4)cc3)nc1-2 ... 18

Give its Population Fragmented Nuclei (%) value. Item: "COc1ccc(NS(=O)(=O)c2sc3ccc(Cl)cc3c2C)cc1N1CCNCC1.Cl"
13

Give its Population Fragmented Nuclei (%) value. Item: "N#Cc1cnc(Nc2cc(NC[C@H]3CNCCO3)c(C(F)(F)F)cn2)cn1"
4

Give its Population Fragmented Nuclei (%) value. Item: "CC(=O)c1cc(-c2cc(C(=O)NC3CC3)ccc2C)c2ncccn12"
8

---

- Tested on: Fibroblast
- Assay Protocol: Multiplex assay against human fibroblast
- Assay type: toxicity, cell-based
- Assay Context: 24 h, 1 µM, compound concentration 1 uM, replicate 1
Collected Population Fragmented Nuclei (%) values appear next to each entry.
Reply with just the number (in %).

Worked cases, Population Fragmented Nuclei (%) given:
Nc1ccc(C(=O)Nc2cccc(-c3nc(N4CCOCC4)c4oc5ncccc5c4n3)c2)cn1 ... 38
CCOc1cc(N2CCC(O)CC2)ccc1Nc1ncc2c(n1)N(C1CCCC1)CCC(=O)N2C ... 27
CNC(=O)c1cc(Oc2ccc(NC(=O)Nc3cc(C(C)(C)C)nn3-c3ccc4ncccc4c3)c(F)c2)ccn1 [REBASTINIB] ... 24

Now, please, on to the next molecule.
Give its Population Fragmented Nuclei (%) value. Item: CC(C)Oc1ccc(C(=O)N[C@H](CNC(=O)CN(C)C)Cc2ccc(-c3cn4cccc([C@H](C)O)c4n3)cc2)cc1Cl [GSK-923295A]
27
